The reported numbers originate from the supplement of paper PMC3545927.

target: furin, P09958; test: furin cleavage Z-score vs untreated control; higher = more cleavage, active = 3.5 or more, inactive = 1 or less, 8 variable residues between constant flanks; conditions: 30 min;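 also: purified furin at 1:10 enzyme:substrate in 50 mM HEPES pH 7.5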
Sequence (P09958 whole entry): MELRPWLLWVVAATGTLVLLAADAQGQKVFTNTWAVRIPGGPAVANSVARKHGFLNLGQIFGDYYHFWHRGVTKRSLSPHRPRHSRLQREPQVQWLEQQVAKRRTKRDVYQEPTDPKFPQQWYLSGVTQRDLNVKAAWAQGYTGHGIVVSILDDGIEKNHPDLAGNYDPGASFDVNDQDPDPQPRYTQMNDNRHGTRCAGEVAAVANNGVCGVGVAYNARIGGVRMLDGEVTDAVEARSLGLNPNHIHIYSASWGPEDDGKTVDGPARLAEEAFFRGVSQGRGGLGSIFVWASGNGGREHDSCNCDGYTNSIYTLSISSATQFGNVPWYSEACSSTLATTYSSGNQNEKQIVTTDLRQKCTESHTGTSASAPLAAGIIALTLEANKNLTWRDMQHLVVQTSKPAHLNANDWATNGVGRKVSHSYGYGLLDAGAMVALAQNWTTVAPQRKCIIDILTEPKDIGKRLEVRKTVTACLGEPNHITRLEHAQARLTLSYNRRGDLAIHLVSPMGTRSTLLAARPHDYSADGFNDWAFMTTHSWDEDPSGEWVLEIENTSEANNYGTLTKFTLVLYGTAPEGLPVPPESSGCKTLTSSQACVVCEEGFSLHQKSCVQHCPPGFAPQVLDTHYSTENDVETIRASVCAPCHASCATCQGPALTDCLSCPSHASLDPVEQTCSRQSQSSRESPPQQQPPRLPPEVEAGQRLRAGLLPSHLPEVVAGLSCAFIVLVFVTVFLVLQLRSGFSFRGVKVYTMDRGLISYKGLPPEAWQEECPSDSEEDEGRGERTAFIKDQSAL
The other results are listed elsewhere or left out. How many sequences the whole screen found active is unknown.
Outcome codes: active, inactive

- CARLKKSQFLAGNASASA [FS-2988]: inactive
- CARSKRLMKRAGNASASA [FS-3264]: active
- CADDGRTCVDAGNASASA [FS-1981]: inactive
- CARFIRGVVDAGNASASA [FS-2332]: active
- CARPSRLKKFAGNASASA [FS-290]: inactive
- CARPGRKDRRAGNASASA [FS-1067]: inactive
- CAAKLVALGIAGNASASA [HC863]: inactive
- CARRPRDDDSAGNASASA [FS-3057]: inactive
- CAREGRDGPKAGNASASA [FS-2003]: inactive
- CARLYVGGPLAGNASASA [HC1500]: inactive
- CARRPRGTMQAGNASASA [FS-1920]: active
- CAEVVTSTWAAGNASASA [HC2243]: inactive
- CARGKRSCHAAGNASASA [FS-2333]: active
- CARFVRDACAAGNASASA [FS-2928]: active
- CAQGWGPISYAGNASASA [HC394]: inactive
- CARFDRQASAAGNASASA [FS-2011]: inactive
- CARRPRHAEQAGNASASA [FS-2781]: active
- CARLRRVICAAGNASASA [FS-2997]: inactive
- CAGPADGMVSAGNASASA [HC667]: inactive
- CARFKRAAGKAGNASASA [FS-2259]: active
- CATTKRDAGKAGNASASA [FS-2474]: inactive
- CARFVRFVPLAGNASASA [FS-1706]: active
- CATYPCSGSWAGNASASA [HC1849]: inactive
- CARFKRKLPKAGNASASA [FS-1948]: active
- CARGSRFSKSAGNASASA [FS-83]: inactive
- CARGIRPVGRAGNASASA [FS-2932]: inactive
